Test system: CP329
Experiment: qHTS profiling for inhibitors of Plasmodium falciparum proliferation (AID 504749);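 note: 0% = DMSO vehicle and full inhibition = artemisinin control; nearly all actives have a fitted effect of over 60% in size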
Conditions: P. falciparum in erythrocytes, SYBR Green DNA, 72 h; series mostly up to 28.7 µM
Inconclusive results are not listed. Calls of active or inactive are those of the source. Calls come from the whole dose curve; as a rule, active = well fitted inhibition curve with a large enough effect; inconclusive = small, poorly fitted or top-dose-only effect; inactive = flat fitted curve, though single readings scatter.
RESULT_TYPE: outcome

Answered cases to consult:
>  <COMPOUND>
CNCc1ccccc1

>  <outcome>
inactive

$$$$
>  <COMPOUND>
Cc1cc(OI)c(C(C)C)cc1-c1cc(C(C)C)c(OI)cc1C

>  <outcome>
inactive

$$$$
>  <COMPOUND>
COc1ccc(O)cc1

>  <outcome>
inactive

$$$$
>  <COMPOUND>
O=c1[nH]c2cc(C(F)(F)F)c(N3CCOCC3)cc2n(CP(=O)(O)O)c1=O

>  <outcome>
inactive

$$$$
>  <COMPOUND>
Cc1c(I)c(=O)n(-c2ccccc2)n1C

>  <outcome>
inactive

$$$$
>  <COMPOUND>
CCCCCCCCCCCCCCCCCCO

>  <outcome>
inactive

$$$$
>  <COMPOUND>
OCC(O)CS (centres undefined)

>  <outcome>
inactive

$$$$
>  <COMPOUND>
CC(=O)N[C@@H](Cc1ccc(O)cc1)C(=O)O

>  <outcome>
inactive

$$$$

Req: Could you share which outcome value was measured for NC(=O)CCCCC1CCSS1 (centres undefined) ?
Resp: inactive

* * *

Kindly state max response for each of the entries shown.
System: HEK293
Experiment: Cytotoxic Profiling of Annotated Libraries Using Quantitative High-Throughput Screening (AID 1296008); note: % is set by controls: 0 for no effect and ±100 for the full control effect; nearly all actives have a fitted effect of over 60% in size
Details: Five cell lines viability, CellTiter-Glo ATP luminescence, 48-72 h; stronger effect = lower value
Inconclusive results are not listed.
Report as a plain number; the unit % is understood.

Req: Could you share which max response value was measured for "CC(C)c1cc2c(cc1S(=O)(=O)O)[C@@]1(C)CCC[C@@](C)(C(=O)O)[C@@H]1CC2" ?
Resp: 0.927

Req: Follow-up entry: OCC(O)CS (stereo not drawn)
Resp: 3.48

Req: Follow-up entry: "O=C(O)c1ccccc1OP(=O)(O)O"
Resp: 2.49

* * *

Test: qHTS Assay for Identifying Gametocytocidal Compounds (AID 743244);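 note: % is set by controls: 0 for no effect and ±100 for the full control effect; actives lower the fluorescent signal which means gametocytes are killed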
Conditions: P. falciparum 3D7 stage III-V gametocytes, alamarBlue, 72 h; stronger effect = lower value
Records with an inconclusive call do not appear.
Kindly state max response for each of the entries shown.
Report as a plain number; the unit % is understood.

Req: Could you share which max response value was measured for "CC(=O)N[C@@H](Cc1ccc(O)cc1)C(=O)O" ?
Resp: -6.61

Req: Follow-up entry: CC(N)CCCC(C)(C)O (centres undefined)
Resp: -9.78

Req: Follow-up entry: "CN1C[C@@H]2C[C@H]1CN2c1cc2c(cc1F)c(=O)c(C(=O)O)cn2C1CC1"
Resp: 2.79

Req: Follow-up entry: "C1CCN2C[C@@H]3C[C@@H](CN4CCCC[C@@H]34)[C@H]2C1"
Resp: 2.03

Req: Follow-up entry: "CCN(CC)CCOC(=O)C(c1ccccc1)c1ccccc1"
Resp: -5.96

Req: Follow-up entry: CCOC(=O)OC(C)OC(=O)[C@@H]1N2C(=O)[C@@H](NC(=O)[C@H](N)c3ccccc3)[C@H]2SC1(C)C (some centres undefined)
Resp: 15.8

Req: Follow-up entry: CN1CCCN=C1COC(=O)C(O)(c1ccccc1)C1CCCCC1 (centres undefined)
Resp: -2.61

Req: Follow-up entry: "COc1ccc(-c2cc(=O)c3c(O)cc(O[C@@H]4O[C@H](CO[C@@H]5O[C@@H](C)[C@H](O)[C@@H](O)[C@H]5O)[C@@H](O)[C@H](O)[C@H]4O)cc3o2)cc1O"
Resp: -2.29

Req: Follow-up entry: "O=C(NCN1CCOCC1)c1cnccn1"
Resp: -4.94
